experiment_summary: H1N1 influenza NS1A inhibitors, functional cell based assay (AID 504329)
measurement_setup: percent inhibition, at 12.5 µM, active compounds read high
In all, about 340,000 compounds went through this assay and about 1,000 (0.29%) were called active. These entries were drawn from the full list. Measured potencies and affinities stand elsewhere.
We begin with a simple list: items and their reported inhibition.
Provide the reading as a plain figure in %.

Use the examples below as a reference point.
Cc1ccc(Cl)c2c1NC(=O)C2(O)CC(=O)c1ccccc1O (stereo unspecified) ... 1.71
Cc1cccc(N=C2NC(=O)c3cc([N+](=O)[O-])ccc32)c1 ... -0.91
O=C(NN=Cc1c(O)ccc2ccccc12)c1ccc2c(c1)OCO2 ... 3.47

In plain terms, "O=C(COc1cccc2ccccc12)N1CCN(c2ccccn2)CC1" has a documented inhibition of 0.39

In plain terms, "CN(C)N=C1c2cc(S(=O)(=O)N3CCOCC3)ccc2-c2ccc(S(=O)(=O)N3CCOCC3)cc21" has a documented inhibition of 19.5

In plain terms, CN(CC1CCCN(CCc2ccc(Cl)cc2)C1)C(=O)CC(F)(F)F (stereo unspecified) has a documented inhibition of -8.18

In plain terms, O=C(CC1C[C@H](C(=O)N2CCCCC2)[C@@]2(CCc3ccccc3)c3[nH]c4ccccc4c3CCN2C1=O)NCCCn1ccnc1 (stereo partly specified) has a documented inhibition of -10.1
